# PBM E-score listing for each entry below
- target-or-system: Sut1 (UniProt P53032)
- Sequence: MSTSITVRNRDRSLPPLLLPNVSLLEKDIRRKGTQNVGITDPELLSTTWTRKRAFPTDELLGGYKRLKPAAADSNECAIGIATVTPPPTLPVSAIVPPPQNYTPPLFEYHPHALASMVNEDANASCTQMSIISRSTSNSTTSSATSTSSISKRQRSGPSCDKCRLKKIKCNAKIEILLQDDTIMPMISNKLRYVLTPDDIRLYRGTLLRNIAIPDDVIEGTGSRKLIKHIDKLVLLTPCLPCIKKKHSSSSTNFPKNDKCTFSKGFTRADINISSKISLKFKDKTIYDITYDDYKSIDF
- measurement-notes: PBM E-score (8-mer binding enrichment) (E-score (-0.5 to 0.5)); higher = stronger / more preferred TF binding
- cond: protein concentration: 200 nM; construct: GST-full length
The full ranking holds about 33,000 sequences; the median of “E-score (-0.5 to 0.5)” is about -0.017, and the highest 2% start at about 0.3. The entries come from a sample that favours the highest values as a whole.
Give the value as a plain number.

• CCCCGGTA = 0.0227
• CACTCCTC = -0.176
• ATAAAGAT = 0.328
• ATAAATAA = 0.321
• ATGAATAA = 0.146

Would you kindly share the measured PBM E-score for `ACCTCCGC` ?
-0.104

Then this sequence: `GACTCCGC`
0.429

Then this sequence: `AAAAAATA`
0.242

Then this sequence: `CACTCCGC`
0.367

Then this sequence: `GTAAAATA`
0.145

Then this sequence: `CTCCGGTC`
0.418

Then this sequence: `CACTCCGG`
0.476

Then this sequence: `ATAAAGAA`
0.19
